Sourced from ChEMBL document CHEMBL1128275

test.method.notes: Toxicity ratio of quotient of the IC50 in myocytes divided by the average IC50 for three tumor cell lines
Assay type: cell-based
test.conditions: myocytes and three tumor cell lines; read-out: Toxicity ratio
The threshold is inclusive: selectivity ratio of exactly 60 counts as 1; values below receive -1.

> print(dat)
                                test.smiles  class.name
1  CN(C)CCN1C(=O)c2cccc3cc4cc(N)ccc4c(c23)C1=O          -1
2  CN(C)CCN1C(=O)c2cc(N)cc3cc4ccccc4c(c23)C1=O           1
3  CC(=O)Nc1ccc2c3c4c(cccc4cc2c1)C(=O)N(CCN(C)C)C3=O          -1
4  CN(C)CCN1C(=O)c2ccc(N)c3cc4ccccc4c(c23)C1=O          -1

Reported selectivity ratio reaches at least 60 for "CN(C)CCN1C(=O)c2cccc3cc4ccc(NC(=O)C(C)(C)C)cc4c(c23)C1=O" ?
-1

Same for "CN(C)CCN1C(=O)c2cccc3cc4cccc([N+](=O)[O-])c4c(c23)C1=O"
1

====

test.method.notes: Toxicity ratio of quotient of the IC50 in myocytes divided by the average IC50 for three tumor cell lines
Format: cell-based
test.conditions: myocytes and three tumor cell lines; read-out: Toxicity ratio
assay.readout: selectivity ratio
When you answer, write just the number.

Sample answers from the record:
> print(dat)
                                   compound  result.value
1  CN(C)CCN1C(=O)c2cccc3cc4ccccc4c(c23)C1=O [AZONAFIDE]            44
2  COc1cccc2c1C(=O)c1c(O)c3c(c(O)c1C2=O)C[C@@](O)(C(=O)CO)C[C@@H]3O[C@H]1C[C@H](N)[C@H](O)[C@H](C)O1 [DOXORUBICIN]           181

Pending compound:
Could you tell me which selectivity ratio is on file for "CC(=O)Nc1ccc2cc3cccc4c3c(c2c1)C(=O)N(CCN(C)C)C4=O" ?
120

====

test.method.notes: Toxicity ratio of quotient of the IC50 in myocytes divided by the average IC50 for three tumor cell lines
Type: cell-based
test.conditions: myocytes and three tumor cell lines; read-out: Toxicity ratio
assay.readout: selectivity ratio
When you answer, write just the number.

Sample answers from the record:
> print(dat)
                                   compound  result.value
1  CN(C)CCN1C(=O)c2cc(NC(=O)C(C)(C)C)cc3cc4ccccc4c(c23)C1=O           9.5
2  CN(C)CCN1C(=O)c2c(N)ccc3cc4ccccc4c(c23)C1=O            48
3  CN(C)CCN1C(=O)c2cccc3cc(N)cc(c23)C1=O [AMONAFIDE]            30

Could you tell me which selectivity ratio is on file for "CN(C)CCN1C(=O)c2cccc3cc4c([N+](=O)[O-])cccc4c(c23)C1=O" ?
14

====

test.method.notes: Cardiotoxicity was measured by using Neonatal rat heart myocyte assay
Format: toxicity, tissue-based
Quick list: log10 of Cardiotoxicity per entry.
Give log10 of Cardiotoxicity, with Cardiotoxicity taken in µM.

Could you tell me which log10 of Cardiotoxicity is on file for "CN(C)CCN1C(=O)c2cc(NC(=O)C(C)(C)C)cc3cc4ccccc4c(c23)C1=O" ?
-0.18

====

test.method.notes: Toxicity ratio of quotient of the IC50 in myocytes divided by the average IC50 for three tumor cell lines
Format: cell-based
test.conditions: myocytes and three tumor cell lines; read-out: Toxicity ratio
assay.readout: selectivity ratio

Sample answers from the record:
> print(dat)
                                test.smiles      assay.readout  result.value
1  O=C1c2c(O)ccc(O)c2C(=O)c2c(NCCNCCO)ccc(NCCNCCO)c21  selectivity ratio           387
2  CN(C)CCN1C(=O)c2cccc3cc4ccc(N)cc4c(c23)C1=O  selectivity ratio            34
3  CC(=O)Nc1ccc2cc3ccccc3c3c2c1C(=O)N(CCN(C)C)C3=O  selectivity ratio          > 33
4  CN(C)CCN1C(=O)c2cccc3cc4cccc(N)c4c(c23)C1=O  selectivity ratio            24

Could you tell me which selectivity ratio is on file for "CC(=O)Nc1cc2c3c(c4ccccc4cc3c1)C(=O)N(CCN(C)C)C2=O" ?
3.5

====

Quick list: Cardiotoxicity per entry.
test.method.notes: Cardiotoxicity was measured by using Neonatal rat heart myocyte assay
Assay type: toxicity, tissue-based
// note: answer is a bare numeric in µM

> print(dat)
                                   compound  quantity.unit  result.value
1  CN(C)CCN1C(=O)c2cc(N)cc3cc4ccccc4c(c23)C1=O             µM         1.724
2  CN(C)CCN1C(=O)c2cccc3cc(N)cc(c23)C1=O [AMONAFIDE]             µM          48.4

Could you tell me which Cardiotoxicity is on file for CN(C)CCN1C(=O)c2cccc3cc4ccccc4c(c23)C1=O [AZONAFIDE] ?
1.983

Same for "COc1cccc2c1C(=O)c1c(O)c3c(c(O)c1C2=O)C[C@@](O)(C(=O)CO)C[C@@H]3O[C@H]1C[C@H](N)[C@H](O)[C@H](C)O1"
11.064

Same for "CN(C)CCN1C(=O)c2cccc3cc4ccc(NC(=O)C(C)(C)C)cc4c(c23)C1=O"
11.025

Same for "CN(C)CCN1C(=O)c2c(N)ccc3cc4ccccc4c(c23)C1=O"
0.434

Same for "O=C1c2c(O)ccc(O)c2C(=O)c2c(NCCNCCO)ccc(NCCNCCO)c21"
7.737

Same for "CN(C)CCN1C(=O)c2cccc3cc4cc(N)ccc4c(c23)C1=O"
0.813

Same for "CC(=O)Nc1cc2c3c(c4ccccc4cc3c1)C(=O)N(CCN(C)C)C2=O"
0.177

Same for "CC(=O)Nc1ccc2c3c4c(cccc4cc2c1)C(=O)N(CCN(C)C)C3=O"
0.487

Same for "CN(C)CCN1C(=O)c2cccc3cc4cccc([N+](=O)[O-])c4c(c23)C1=O"
8.647

Same for "CN(C)CCN1C(=O)c2cccc3cc4c([N+](=O)[O-])cccc4c(c23)C1=O"
0.65

Same for "CN(C)CCN1C(=O)c2cccc3cc4ccc(N)cc4c(c23)C1=O"
0.943

Same for "CN(C)CCN1C(=O)c2ccc(N)c3cc4ccccc4c(c23)C1=O"
1.486

Same for "CN(C)CCN1C(=O)c2cccc3cc4cccc(N)c4c(c23)C1=O"
27.1

Same for "CC(=O)Nc1ccc2cc3cccc4c3c(c2c1)C(=O)N(CCN(C)C)C4=O"
7.786

====

Quick list: Cardiotoxicity per entry.
test.method.notes: Cardiotoxicity was measured by using Neonatal rat heart myocyte assay
Type: toxicity, tissue-based

Sample answers from the record:
> print(dat)
                                test.smiles  result.value
1  CC(=O)Nc1cccc2cc3cccc4c3c(c12)C(=O)N(CCN(C)C)C4=O     > 22.5 µM
2  CN(C)CCN1C(=O)c2cccc3cc4c(N)cccc4c(c23)C1=O     > 81.3 µM
3  CN(C)CCN1C(=O)c2c(NC(=O)C(C)(C)C)ccc3cc4ccccc4c(c23)C1=O    > 24.63 µM
4  CC(=O)Nc1c2ccccc2c2c3c(cccc13)C(=O)N(CCN(C)C)C2=O   > 24.331 µM

Pending compound:
Could you tell me which Cardiotoxicity is on file for "CC(=O)Nc1ccc2cc3ccccc3c3c2c1C(=O)N(CCN(C)C)C3=O" ?
> 24.331 µM
